Target: serotonin 1A receptor (Rattus norvegicus)
Sequence (P19327 1-422): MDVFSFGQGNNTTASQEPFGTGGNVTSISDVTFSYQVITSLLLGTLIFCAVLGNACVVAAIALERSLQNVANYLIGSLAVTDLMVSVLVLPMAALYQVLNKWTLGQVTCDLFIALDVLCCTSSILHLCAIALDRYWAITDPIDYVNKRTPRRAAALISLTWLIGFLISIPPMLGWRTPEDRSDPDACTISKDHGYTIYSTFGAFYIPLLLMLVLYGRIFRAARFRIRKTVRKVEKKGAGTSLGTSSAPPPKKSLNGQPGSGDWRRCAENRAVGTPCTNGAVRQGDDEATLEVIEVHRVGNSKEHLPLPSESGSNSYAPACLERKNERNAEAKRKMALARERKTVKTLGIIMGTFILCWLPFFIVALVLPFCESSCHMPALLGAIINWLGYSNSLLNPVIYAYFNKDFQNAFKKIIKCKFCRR
pKi: −log10 of the molar value.
In this section, each of the compounds is paired with its reported pKi.

Reference set (2 entries):
compound="OC1(C2CCc3cccnc32)CCN(CCc2ccc(F)cc2)CC1 (stereo not drawn)" value="< 6.70"
compound=COc1cccc2c1CCN2C1CCN(CCc2ccc(F)cc2)CC1 value="< 6.70"

Pending compound:
// fetch pKi; item: CC(=O)NCc1ccc2c(C=O)cn(C3CCN(CCc4ccc(F)cc4)CC3)c2c1 ; system: serotonin 1A receptor (Rattus norvegicus) < 7.70
